- methodSummary: chemical genetic growth profiling, strain panel (AID 1159580);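 also: tested at 20 µM; growth read once vehicle control cultures reached saturation at 30 °C; 1 = growth at the plate median or of vehicle wells; lower values mean less growth of the strain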
- recordedConditions: S. cerevisiae deletion strains, growth OD, locus YLR113W, strain HOG1, stronger effect = lower value
About 2,000 (36%) of roughly 5,500 compounds were called active. Not shown: some 18% with an inconclusive outcome. Some of the results follow.
# normalized growth values compiled below
Reply briefly: the number, and no unit.

Answered examples (4):
{"compound": "CC(=O)Nc1c(I)c(NC(C)=O)c(I)c(C(=O)O)c1I", "normalized growth": 0.977}
{"compound": "Cc1ccc(N=CN(C)C=Nc2ccc(C)cc2C)c(C)c1", "normalized growth": 0.988}
{"compound": "CC(C)CC(N(C)C)C1(c2ccc(Cl)cc2)CCC1 (stereo unspecified)", "normalized growth": 0.995}
{"compound": "C[C@]12CCC(=O)C=C1CCC1C2[C@@H](O)C[C@@]2(C)C1CC[C@]2(O)C(=O)CO (stereo partly specified)", "normalized growth": 0.99}

Exercise: Provide one value: measured normalized growth of CC(=O)NCc1c(I)c(NC(C)=O)c(I)c(C(=O)O)c1I
Solution: 1.02

Exercise: Specify reported normalized growth for the compound shown: CCC(C)C(=O)O[C@H]1[C@H](O)C2C(CN3CC(C)CCC3[C@@]2(C)O)C2C[C@]34O[C@]5(O)C(OC(=O)C(C)(O)CC)CC[C@@]3(C)C5C(OC(C)=O)[C@@H](OC(C)=O)C4[C@@]21O (stereo partly specified)
Solution: 0.983
